Data credit: patent US20250346606A1

Tested on: HCC70 cells
method notes: Inhibitory effect of compounds on HCC70 cell proliferation
Type: cell-based, Human
test conditions: Homo sapiens, HCC70, 72 h, read-out: IC50, inhibitory activity on HCC70 cell proliferation
Decide using IC50 alone. Strictly below 200 nM: label 1. Equal to or above 200 nM: label 0.

Challenge: Check if IC50 falls below 200 nM for CC#C[C@@H](O)C(=O)N[C@H]1CCc2c(C)c(F)cc3nc4c(c1c23)Cn1c-4cc2c(c1=O)COC(=O)[C@]2(O)CC .
Response given: label 0

Challenge: Check if IC50 falls below 200 nM for CC[C@@]1(O)C(=O)OCc2c1cc1n(c2=O)Cc2c-1nc1cc(Cl)c(C)c3c1c2[C@H](NC[C@H](C)O)CC3 .
Response given: label 1

Challenge: Check if IC50 falls below 200 nM for CC[C@@]1(O)C(=O)OCc2c1cc1n(c2=O)Cc2c-1nc1cc(Cl)c(C)c3c1c2[C@@H](NC(=O)[C@H](O)C1CC1)CC3 .
Response given: label 0
